biological target: HLA-A*24:02 (Homo sapiens, UniProt P04439, D101N/D140Y/D185E/E176V/E190D/F33S/G103R/G107R/I119L/I121M/I306V/K335N/L105A/L180Q/L300P/N151K/N90K/Q86E/Q94H/R106L/R138H/R89G/T104I/T345S/V100E/W191G/Y123F); type: binding; conditions: percent relative the binding of positive control peptide […]; duplicated experiments; positive binder >40%
Provide the reported Bind A*24:02 of each item.
Unit % implied. Number only.

input: Please report Bind A*24:02 for the following substance: "AMILAAYHP"
output: 0

input: Please report Bind A*24:02 for the following substance: PSSDPAW ER
output: 0

input: Please report Bind A*24:02 for the following substance: "GTPNELGGA"
output: 0

input: Please report Bind A*24:02 for the following substance: TMLDHAGDM [Rv0288_10–18m3]
output: 14

input: Please report Bind A*24:02 for the following substance: "GSAAIGLSM"
output: 7

input: Please report Bind A*24:02 for the following substance: "GQSSFYSDW"
output: 76

input: Please report Bind A*24:02 for the following substance: "NNSPAVYLL"
output: 49

input: Please report Bind A*24:02 for the following substance: "SAAIGLSMA"
output: 0

input: Please report Bind A*24:02 for the following substance: "YWGAQLNAM"
output: 113

input: Please report Bind A*24:02 for the following substance: "AAGGHNAVF"
output: 34

* * *

biological target: HLA-A*68:01 (Homo sapiens, UniProt P04439, A269V/D185E/E176V/E277Q/E87N/F33Y/G231S/I121M/I166T/I218V/L180W/L300P/L318F/N151K/P208A/P217A/Q86R/R169H/T345S); format: binding; settings: percent relative the binding of positive control peptide […]; duplicated experiments; positive binder >40%
Bind A*68:01 under 4% gets rule met, anything at or over 4% gets rule not met.

input: Dear colleague, could you confirm whether Bind A*68:01 of "RAQDDYNGW" falls below 4%? Thanks.
output: rule met

input: Dear colleague, could you confirm whether Bind A*68:01 of YNYPAMLGH [Rv0288_6–14] falls below 4%? Thanks.
output: rule not met

input: Dear colleague, could you confirm whether Bind A*68:01 of GITYQAWQA [Rv0288_48–56] falls below 4%? Thanks.
output: rule met

input: Dear colleague, could you confirm whether Bind A*68:01 of "WGAQLNAMK" falls below 4%? Thanks.
output: rule not met

input: Dear colleague, could you confirm whether Bind A*68:01 of "CGNGTPNEL" falls below 4%? Thanks.
output: rule met

input: Dear colleague, could you confirm whether Bind A*68:01 of "WVYCGNGTP" falls below 4%? Thanks.
output: rule not met

input: Dear colleague, could you confirm whether Bind A*68:01 of "SLSALLDPS" falls below 4%? Thanks.
output: rule met

input: Dear colleague, could you confirm whether Bind A*68:01 of YQAWQAQWN [Rv0288_51–59] falls below 4%? Thanks.
output: rule not met

input: Dear colleague, could you confirm whether Bind A*68:01 of DW YSPACGK falls below 4%? Thanks.
output: rule not met

input: Dear colleague, could you confirm whether Bind A*68:01 of "PNGTHSWEY" falls below 4%? Thanks.
output: rule not met

input: Dear colleague, could you confirm whether Bind A*68:01 of "SSNLKFQDA" falls below 4%? Thanks.
output: rule not met

input: Dear colleague, could you confirm whether Bind A*68:01 of "GLSIVMPVG" falls below 4%? Thanks.
output: rule met

input: Dear colleague, could you confirm whether Bind A*68:01 of "AGSSAMILA" falls below 4%? Thanks.
output: rule met

input: Dear colleague, could you confirm whether Bind A*68:01 of "LKFQDAYNA" falls below 4%? Thanks.
output: rule met

input: Dear colleague, could you confirm whether Bind A*68:01 of "YWGAQLNAM" falls below 4%? Thanks.
output: rule not met

input: Dear colleague, could you confirm whether Bind A*68:01 of WQGDTGITY [Rv0288_43–51] falls below 4%? Thanks.
output: rule not met

input: Dear colleague, could you confirm whether Bind A*68:01 of "IPKLVANNT" falls below 4%? Thanks.
output: rule met

input: Dear colleague, could you confirm whether Bind A*68:01 of "QSGLSIVMP" falls below 4%? Thanks.
output: rule met

input: Dear colleague, could you confirm whether Bind A*68:01 of "RLWVYCGNG" falls below 4%? Thanks.
output: rule not met

input: Dear colleague, could you confirm whether Bind A*68:01 of "LSANRAVKP" falls below 4%? Thanks.
output: rule met

input: Dear colleague, could you confirm whether Bind A*68:01 of "DAYNAAGGH" falls below 4%? Thanks.
output: rule not met

input: Dear colleague, could you confirm whether Bind A*68:01 of "SMAGSSAMI" falls below 4%? Thanks.
output: rule met

input: Dear colleague, could you confirm whether Bind A*68:01 of "QQFIYAGSL" falls below 4%? Thanks.
output: rule met

input: Dear colleague, could you confirm whether Bind A*68:01 of QT YKWETFL falls below 4%? Thanks.
output: rule not met

input: Dear colleague, could you confirm whether Bind A*68:01 of "KPTGSAAIG" falls below 4%? Thanks.
output: rule met

input: Dear colleague, could you confirm whether Bind A*68:01 of "GANIPAEFL" falls below 4%? Thanks.
output: rule met

input: Dear colleague, could you confirm whether Bind A*68:01 of SSTHEANTM [Rv0288_73–81] falls below 4%? Thanks.
output: rule met

input: Dear colleague, could you confirm whether Bind A*68:01 of "DPSQGMGPS" falls below 4%? Thanks.
output: rule met

input: Dear colleague, could you confirm whether Bind A*68:01 of "AVYLLDGLR" falls below 4%? Thanks.
output: rule not met

input: Dear colleague, could you confirm whether Bind A*68:01 of "MILAAYHPQ" falls below 4%? Thanks.
output: rule met

input: Dear colleague, could you confirm whether Bind A*68:01 of "PAVYLLDGL" falls below 4%? Thanks.
output: rule met

input: Dear colleague, could you confirm whether Bind A*68:01 of "LLDGLRAQD" falls below 4%? Thanks.
output: rule not met

input: Dear colleague, could you confirm whether Bind A*68:01 of "NNSPAVYLL" falls below 4%? Thanks.
output: rule not met

input: Dear colleague, could you confirm whether Bind A*68:01 of DTGITYQAW [Rv0288_46–54] falls below 4%? Thanks.
output: rule not met

input: Dear colleague, could you confirm whether Bind A*68:01 of "YQSGLSIVM" falls below 4%? Thanks.
output: rule not met

input: Dear colleague, could you confirm whether Bind A*68:01 of "FVRSSNLKF" falls below 4%? Thanks.
output: rule not met

input: Dear colleague, could you confirm whether Bind A*68:01 of "GQSSFYSDW" falls below 4%? Thanks.
output: rule met

input: Dear colleague, could you confirm whether Bind A*68:01 of "YSDWYSPAC" falls below 4%? Thanks.
output: rule not met

input: Dear colleague, could you confirm whether Bind A*68:01 of "MGPSLIGLA" falls below 4%? Thanks.
output: rule met

input: Dear colleague, could you confirm whether Bind A*68:01 of LVANNT RLW falls below 4%? Thanks.
output: rule not met

input: Dear colleague, could you confirm whether Bind A*68:01 of "SAMILAAYH" falls below 4%? Thanks.
output: rule not met

input: Dear colleague, could you confirm whether Bind A*68:01 of AMEDLVRAY [Rv0288_61–69] falls below 4%? Thanks.
output: rule met

input: Dear colleague, could you confirm whether Bind A*68:01 of "SNLKFQDAY" falls below 4%? Thanks.
output: rule not met

input: Dear colleague, could you confirm whether Bind A*68:01 of "VRSSNLKFQ" falls below 4%? Thanks.
output: rule not met

input: Dear colleague, could you confirm whether Bind A*68:01 of "NAVFNFPPN" falls below 4%? Thanks.
output: rule not met

input: Dear colleague, could you confirm whether Bind A*68:01 of "FLTSELPQW" falls below 4%? Thanks.
output: rule not met

input: Dear colleague, could you confirm whether Bind A*68:01 of QAWQAQWNQ [Rv0288_52–60] falls below 4%? Thanks.
output: rule not met

input: Dear colleague, could you confirm whether Bind A*68:01 of SAWQGDTGI [Rv0288_41–49] falls below 4%? Thanks.
output: rule not met

input: Dear colleague, could you confirm whether Bind A*68:01 of "LDPSQGMGP" falls below 4%? Thanks.
output: rule met

input: Dear colleague, could you confirm whether Bind A*68:01 of "KAGCQTYKW" falls below 4%? Thanks.
output: rule not met

input: Dear colleague, could you confirm whether Bind A*68:01 of VRAYHAMSS [Rv0288_66–74] falls below 4%? Thanks.
output: rule not met

input: Dear colleague, could you confirm whether Bind A*68:01 of "SSFYSDWYS" falls below 4%? Thanks.
output: rule not met

input: Dear colleague, could you confirm whether Bind A*68:01 of "VQFQSGGNN" falls below 4%? Thanks.
output: rule met

input: Dear colleague, could you confirm whether Bind A*68:01 of "NFVRSSNLK" falls below 4%? Thanks.
output: rule not met

input: Dear colleague, could you confirm whether Bind A*68:01 of "AAGGHNAVF" falls below 4%? Thanks.
output: rule met

input: Dear colleague, could you confirm whether Bind A*68:01 of "AMGDAGGYK" falls below 4%? Thanks.
output: rule not met
